Tgt: T1, TNFR1 (Homo sapiens, UniProt P19438)
T1 chain: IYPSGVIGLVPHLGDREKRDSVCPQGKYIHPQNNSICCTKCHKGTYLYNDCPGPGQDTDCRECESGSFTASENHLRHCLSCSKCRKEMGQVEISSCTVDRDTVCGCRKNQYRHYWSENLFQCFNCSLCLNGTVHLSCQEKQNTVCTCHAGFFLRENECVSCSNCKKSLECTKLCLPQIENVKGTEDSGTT
Test summary: yeast display SC50
Documented apparent Kd (screen) across a set of binders
The reply should read as a number followed by its unit.

{"columns": ["Binder", "Result"],
 "data": [
  ["L43E (designed binder) SMEEEVEKAAKEYEKKKKEAIEKHLEKLKAKDKEAAERFLKEEEEAAKEYAKDEAKTMSEEEAKRRAKKYKEKVLLSELSEEEQKEIKEAEEKLVRTILKYVEEAAK", "16.7 nM"]
]}

Proceed to the following item.
K41W (designed binder) SMEEEVEKAAKEYEKKKKEAIEKHLEKLKAKDKEAAERFLWELEEAAKEYAKDEAKTMSEEEAKRRAKKYKEKVLLSELSEEEQKEIKEAEEKLVRTILKYVEEAAK yielded apparent Kd (screen) of 0.446 nM
